Values compiled from patent EP4759814A1.

System: HCT116 (MTAP del) cell line
PROCEDURE_SUMMARY: Cell proliferation inhibition in MTAP-deficient cancer cells, WST-1 assay
Type: cell-based
SETTINGS: Homo sapiens, HCT-116, 120 hours of drug treatment, maximum concentration 10 µM, read-out: HCT116 MTAP^-/- (IC50, cell proliferation inhibited by 50%)
MEASUREMENT_NAME: IC50

Examples from the recorded data:
{"SMILES_INPUT": "Cc1ccccc1-n1c(=O)c2nccn2c2c(F)cc(Cl)cc21", "ASSAY_RESULT": "> 10000 nM"}
{"SMILES_INPUT": "O=c1c2nccn2c2ccc(Cl)cc2n1-c1cccc(F)c1", "ASSAY_RESULT": "100 to 1000 nM"}
{"SMILES_INPUT": "CCOc1ccc2c(c1)n(-c1ccccc1C)c(=O)c1nccn12", "ASSAY_RESULT": "> 10000 nM"}
{"SMILES_INPUT": "Cc1cc(F)ccc1-n1c(=O)c2nccn2c2ccc(Cl)cc21", "ASSAY_RESULT": "> 10000 nM"}

Exam item: Look up IC50 of COc1cc(C(F)(F)F)cc2c1n1ccnc1c(=O)n2-c1cccnc1C and report it.
Marked response: 1 to 100 nM

Exam item: Given the molecule Cc1cc2c(cc1C(F)(F)F)n(-c1cccnc1C)c(=O)c1nccn12 , write its reported IC50.
Marked response: 1 to 100 nM

Exam item: Return IC50 for the following molecule: Cc1cc2c(cc1Cl)n(-c1ccccc1C)c(=O)c1nccn12
Marked response: 100 to 1000 nM

====

Consider compounds characterized by their IC50 with MAT2A (Homo sapiens, UniProt P31153).
Sequence (P31153 whole entry): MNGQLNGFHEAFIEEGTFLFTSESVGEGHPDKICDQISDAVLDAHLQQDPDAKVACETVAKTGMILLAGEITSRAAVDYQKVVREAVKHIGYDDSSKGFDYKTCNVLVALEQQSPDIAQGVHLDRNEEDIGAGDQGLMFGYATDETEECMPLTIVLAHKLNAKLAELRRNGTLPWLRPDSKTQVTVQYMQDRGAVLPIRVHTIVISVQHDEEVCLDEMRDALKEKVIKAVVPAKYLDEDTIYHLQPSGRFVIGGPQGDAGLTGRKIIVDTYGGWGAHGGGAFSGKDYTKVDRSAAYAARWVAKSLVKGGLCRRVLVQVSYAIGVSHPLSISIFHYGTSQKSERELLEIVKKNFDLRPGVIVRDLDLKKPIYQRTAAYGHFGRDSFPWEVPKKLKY

{"COMPOUND": "Cc1ncccc1-n1c(=O)c2nccn2c2cc(Cl)c(C(F)(F)F)cc21 [Example 96]", "ASSAY_RESULT": "1 to 100 nM"}

Exam item: Name the value of IC50 reported for Cc1ccccc1-n1c(=O)c2nccn2c2ccc(Cl)cc21 (atropisomer, axis not shown; (Ra)) [Example 20] when tested on MAT2A (Homo sapiens, UniProt P31153).
Marked response: > 10000 nM

====

Test system: HCT116 (MTAP del) cell line
PROCEDURE_SUMMARY: Cell proliferation inhibition in MTAP-deficient cancer cells, WST-1 assay
Type: cell-based
SETTINGS: Homo sapiens, HCT-116, 120 hours of drug treatment, maximum concentration 10 µM, read-out: HCT116 MTAP^-/- (IC50, cell proliferation inhibited by 50%)
Measured IC50, listed per entry.

Some compounds with recorded IC50:
{"SMILES_INPUT": "Cc1ccccc1-n1c(=O)c2nccn2c2ccc(Cl)cc21", "ASSAY_RESULT": "100 to 1000 nM"}
{"SMILES_INPUT": "Cc1ncccc1-n1c(=O)c2nccn2c2ccc(Cl)cc21", "ASSAY_RESULT": "1 to 100 nM"}
{"SMILES_INPUT": "Cc1ccccc1-n1c(=O)c2nccn2c2ccc(OC(F)(F)F)cc21", "ASSAY_RESULT": "1000 to 10000 nM"}
{"SMILES_INPUT": "Cc1ncccc1-n1c(=O)c2nc(N(C)C)c(C)n2c2cc(Cl)c(C(F)(F)F)cc21", "ASSAY_RESULT": "100 to 1000 nM"}
{"SMILES_INPUT": "Cc1c(F)cccc1-n1c(=O)c2nccn2c2ccc(C3CC3)cc21", "ASSAY_RESULT": "100 to 1000 nM"}
{"SMILES_INPUT": "Cc1ncccc1-n1c(=O)c2ncc(C)n2c2ccc(Cl)cc21", "ASSAY_RESULT": "1 to 100 nM"}
{"SMILES_INPUT": "Cc1cn2c(n1)c(=O)n(-c1cccnc1C)c1cc(Cl)ccc12", "ASSAY_RESULT": "1 to 100 nM"}
{"SMILES_INPUT": "O=c1c2nccn2c2ccc(Cl)cc2n1-c1ccccc1C(F)(F)F", "ASSAY_RESULT": "1000 to 10000 nM"}

Then there is this compound:
Exam item: For HCT116 (MTAP del) cell line, give IC50 of the listed compound: Cc1ccccc1-n1c(=O)c2nccn2c2ccc(C#N)cc21
Marked response: 1000 to 10000 nM

====

For UniProt:P31153, measured pIC50 is reported for the entries below.
pIC50: −log10 of the molar value.

{"SMILES_INPUT": "O=c1c2nccn2c2cc(Cl)c(Br)cc2n1-c1cccc2ncsc12", "ASSAY_RESULT": "7.00 to 9.00"}
{"SMILES_INPUT": "COc1ccccc1-n1c(=O)c2nccn2c2ccc(Cl)cc21", "ASSAY_RESULT": "6.00 to 7.00"}
{"SMILES_INPUT": "O=c1c2nccn2c2ccc(Cl)cc2n1-c1ccccc1Br", "ASSAY_RESULT": "6.00 to 7.00"}

For the next question, use this molecule.
Exam item: Lab note: UniProt:P31153 assay, enter pIC50 for Cc1ccccc1-n1c(=O)c2nccn2c2ccc(Br)cc21 here
Marked response: 7.00 to 9.00

====

Record: pIC50 reported on MAT2A (Homo sapiens).
pIC50: −log10 of the molar value.

{"MOLECULE": "Cc1ccccc1-n1c(=O)c2nccn2c2ccc(Cl)cc21 [Example 1]", "pIC50": "6.00 to 7.00"}
{"MOLECULE": "CCOc1ccc2c(c1)n(-c1cccc(F)c1C)c(=O)c1nccn12 [Example 31]", "pIC50": "< 5.00"}
{"MOLECULE": "Cc1ncccc1-n1c(=O)c2nccn2c2c(N(C)C)cc(Cl)cc21 [Example 106]", "pIC50": "< 5.00"}

Lab note: next molecule to report on.
Exam item: Using MAT2A (Homo sapiens) as the test system, report measured pIC50 of Cc1ncccc1-n1c(=O)c2nccn2c2cc(Cl)c(Br)cc21 [Example 79] .
Marked response: 7.00 to 9.00

====

Test system: HCT116 (MTAP del) cell line
PROCEDURE_SUMMARY: Cell proliferation inhibition in MTAP-deficient cancer cells, WST-1 assay
Type: cell-based
SETTINGS: Homo sapiens, HCT-116, 120 hours of drug treatment, maximum concentration 10 µM, read-out: HCT116 MTAP^-/- (IC50, cell proliferation inhibited by 50%)
pIC50: −log10 of the molar value.
MEASUREMENT_NAME: pIC50

Field: example entries. Status: answers known.
{"MOLECULE": "Cc1ncccc1-n1c(=O)c2ncc(Br)n2c2cc(Cl)c(Br)cc21 [Example 88]", "pIC50": "6.00 to 7.00"}
{"MOLECULE": "Cc1cccc(-n2c(=O)c3nccn3c3ccc(Cl)cc32)c1C [Example 4]", "pIC50": "6.00 to 7.00"}
{"MOLECULE": "COc1cc(Cl)cc2c1n1ccnc1c(=O)n2-c1cccnc1C [Example 102]", "pIC50": "7.00 to 9.00"}
{"MOLECULE": "CNc1cc(Cl)cc2c1n1ccnc1c(=O)n2-c1cccnc1C [Example 105]", "pIC50": "7.00 to 9.00"}
{"MOLECULE": "Cc1ccccc1-n1c(=O)c2nccn2c2ccc(OCC(F)(F)F)cc21 [Example 28]", "pIC50": "< 5.00"}

Exam item: Supply measured pIC50 of Cc1ncccc1-n1c(=O)c2nc(Br)c(C)n2c2cc(Cl)c(Br)cc21 [Example 92] in your reply.
Marked response: < 5.00

Exam item: For Cc1ncccc1-n1c(=O)c2nccn2c2cc(F)c(Br)cc21 [Example 77] , write its pIC50.
Marked response: 7.00 to 9.00

Exam item: Input Cc1ccccc1-n1c(=O)c2nccn2c2ccc(Br)cc21 [Example 32] , output reported pIC50.
Marked response: 7.00 to 9.00

Exam item: Complete the entry with pIC50 for Cc1ccccc1-n1c(=O)c2nccn2c2ccc(C(F)F)nc21 [Example 46]
Marked response: 6.00 to 7.00

Exam item: Supply pIC50 value. Item: Cc1ncccc1-n1c(=O)c2nccn2c2c(F)cc(Cl)cc21 [Example 101]
Marked response: 7.00 to 9.00

Exam item: For the molecule Cc1ccccc1-n1c(=O)c2nccn2c2ccc(C3CC3)cc21 [Example 16] , report pIC50.
Marked response: 6.00 to 7.00

Exam item: Please give measured pIC50 of the following entry: Cc1cc2c(cc1Br)n(-c1cccnc1Cl)c(=O)c1nccn12 [Example 91]
Marked response: 7.00 to 9.00

Exam item: Read the entry COc1cc2c(cc1Br)n(-c1ccccc1C)c(=O)c1nccn12 [Example 74] and write its reported pIC50.
Marked response: 6.00 to 7.00

====

System: HCT116 (MTAP del) cell line
PROCEDURE_SUMMARY: Cell proliferation inhibition in MTAP-deficient cancer cells, WST-1 assay
Format: cell-based
SETTINGS: Homo sapiens, HCT-116, 120 hours of drug treatment, maximum concentration 10 µM, read-out: HCT116 MTAP^-/- (IC50, cell proliferation inhibited by 50%)
Experimental: The HCT116 (MTAP del) cell line, which is a colorectal cancer cell line with deletion of MTAP gene, was treated with a compound according to an embodiment of the present application as a MAT2A inhibitor, and after culturing for 120 hours, the change in the number of cells was measured with a WST-1 assay reagent. […]
pIC50: −log10 of the molar value.
Catalogue of pIC50 readings, one per entry.

Exam item: Return value of pIC50 for input COc1ccccc1-n1c(=O)c2nccn2c2ccc(Cl)cc21 , no commentary.
Marked response: 6.00 to 7.00

Exam item: State its pIC50: Cc1ccccc1-n1c(=O)c2nccn2c2ccc(C(F)F)cc21
Marked response: 7.00 to 9.00
